system_name: c-Src SH2;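 note: peptide library displayed on the E. coli surface as eCPX fusions, selected cells deep-sequenced, score is each peptide's frequency after selection divided by its frequency in the input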
assay_protocol: SH2 binding enrichment of the phosphorylated peptide, bacterial display (enrichment ratio); higher = better substrate or ligand; peptides without Tyr show the background
Recorded SH2 binding enrichment for the following sequences
Reply with the value as a number alone.

- primary_sequence: "DVAKEYGHLLP [HRC_Y99_S96A]"
  measurement_label: "SH2 binding enrichment"
  test_value: 0.429
- primary_sequence: "KKKKQYKDKYL [CASK_Y708]"
  measurement_label: "SH2 binding enrichment"
  test_value: 0.275
- primary_sequence: "EQQNMYRLKVL [ABCC6_Y372]"
  measurement_label: "SH2 binding enrichment"
  test_value: 0.499
- primary_sequence: "KLFFHYNPKLC [INSR_Y457]"
  measurement_label: "SH2 binding enrichment"
  test_value: 0.712
- primary_sequence: "VFGVSYDEYRY [CFTR_Y512_I507V]"
  measurement_label: "SH2 binding enrichment"
  test_value: 1.38

# input Give its SH2 binding enrichment value. Item: QRIYQYIRSRF [DYRK1B_Y273_Q275R]
# output 0.369

# input Give its SH2 binding enrichment value. Item: DLHGIYQKLVI
# output 0.597

Where do the numbers come from? From the supplement of paper PMC10065799.
